Data provenance is patent US12180194B2.

We begin with a simple list: items and their reported Genotoxicity test, Without S9 rat liver extract, Bscl 2, 10.
test system: Bscl2-GFP; test: ToxTracker genotoxicity assay, Bscl2-GFP reporter induction; conditions: GFP induction vs vehicle at 10% cytotoxicity; 24 h exposure, no S9
experimental readout: Genotoxicity test, Without S9 rat liver extract, Bscl 2, 10

[
  {
    "molecule": "CCCCOCC(CN1CC1C)OC(=O)NCCCCCC/N=c1\\oc(=O)n(CCCCCCNC(=O)OC(COCCCC)CN2CC2C)c(=O)n1CCCCCCNC(=O)OC(COCCCC)CN1CC1C (stereo not drawn)",
    "reported": "1.1 fold"
  },
  {
    "molecule": "CC1CN1C1CCCCC1OC(=O)NCCCCCCn1c(=O)n(CCCCCCNC(=O)OC2CCCCC2N2CC2C)c(=O)n(CCCCCCNC(=O)OC2CCCCC2N2CC2C)c1=O (stereo not drawn)",
    "reported": "1.1 fold"
  },
  {
    "molecule": "CCCCOCC(CN1CC1C)OC(=O)Nc1ccc(C)c(NC(=O)OC(COCCCC)CN2CC2C)c1 (stereo not drawn) [Comp. Ex. 11, reference compound]",
    "reported": "1.2 fold"
  },
  {
    "molecule": "CCCCOCC(CN1CC1C)OC(=O)NCCCCCCn1c(=O)n(CCCCCCNC(=O)OC(COCCCC)CN2CC2C)c(=O)n(CCCCCCNC(=O)OC(COCCCC)CN2CC2C)c1=O (stereo not drawn)",
    "reported": "1.1 fold"
  },
  {
    "molecule": "CCCCOCC(CN1CC1C)OC(=O)NC(C)(C)c1cccc(C(C)(C)NC(=O)OC(COCCCC)CN2CC2C)c1 (stereo not drawn)",
    "reported": "1.1 fold"
  },
  {
    "molecule": "CCCCOCC(CN1CC1C)OC(=O)NCCCCCCN1C(=O)N(CCCCCCNC(=O)OC(COCCCC)CN2CC2C)C1=O (stereo not drawn)",
    "reported": "1.1 fold"
  }
]

---

tested on: Rtkn-GFP; test: ToxTracker genotoxicity assay, Rtkn-GFP reporter induction; details: GFP induction vs vehicle at 10% cytotoxicity; 24 h exposure, no S9
experimental readout: Genotoxicity test, Without S9 rat liver extract, Rtkn, 10 (fold)

[
  {
    "compound": "CC(CN1CC1C)OC(=O)NC(C)(C)c1cccc(C(C)(C)NC(=O)OC(C)CN2CC2C)c1 (centres unmarked) [Comp. Ex. 8, reference compound]",
    "assay system": "Rtkn-GFP",
    "value units": "fold",
    "reported": 1.4
  },
  {
    "compound": "CCCCC(CC)COCC(CN1CC1C)OC(=O)NCCCCCCn1c(=O)n(CCCCCCNC(=O)OC(COCC(CC)CCCC)CN2CC2C)c(=O)n(CCCCCCNC(=O)OC(COCC(CC)CCCC)CN2CC2C)c1=O (centres unmarked)",
    "assay system": "Rtkn-GFP",
    "value units": "fold",
    "reported": 1.1
  },
  {
    "compound": "CCCCCCCCCC(=O)OCC(CN1CC1C)OC(=O)NC(C)(C)c1cccc(C(C)(C)NC(=O)OC(COC(=O)CCCCCCCCC)CN2CC2C)c1 (centres unmarked)",
    "assay system": "Rtkn-GFP",
    "value units": "fold",
    "reported": 1.0
  },
  {
    "compound": "CC(CN1CC1C)OC(=O)NCCCCCCn1c(=O)n(CCCCCCNC(=O)OC(C)CN2CC2C)c(=O)n(CCCCCCNC(=O)OC(C)CN2CC2C)c1=O (centres unmarked)",
    "assay system": "Rtkn-GFP",
    "value units": "fold",
    "reported": 1.2
  },
  {
    "compound": "CCCCCCCCCC(=O)OCC(CN1CC1C)OC(=O)NCCCCCCn1c(=O)n(CCCCCCNC(=O)OC(COC(=O)CCCCCCCCC)CN2CC2C)c(=O)n(CCCCCCNC(=O)OC(COC(=O)CCCCCCCCC)CN2CC2C)c1=O (centres unmarked)",
    "assay system": "Rtkn-GFP",
    "value units": "fold",
    "reported": 1.1
  }
]

---

system: Rtkn-GFP; experiment: ToxTracker genotoxicity assay, Rtkn-GFP reporter induction; details: GFP induction vs vehicle at 10% cytotoxicity; 3 h exposure with S9, 24 h recovery
experimental readout: Genotoxicity test, With S9 rat liver extract, Rtkn, 10 (fold)

[
  {
    "compound": "CCCCOCC(CN1CC1C)OC(=O)NCCCCCC/N=c1\\oc(=O)n(CCCCCCNC(=O)OC(COCCCC)CN2CC2C)c(=O)n1CCCCCCNC(=O)OC(COCCCC)CN1CC1C (stereo not drawn) [Ex. 15]",
    "reported": 1.1
  },
  {
    "compound": "CC(OC(=O)NCCCCCCn1c(=O)n(CCCCCCNC(=O)OC(C)C(C)N2CC2C)c(=O)n(CCCCCCNC(=O)OC(C)C(C)N2CC2C)c1=O)C(C)N1CC1C (stereo not drawn) [Ex. 8]",
    "reported": 1.3
  },
  {
    "compound": "CC(CN1CC1C)OC(=O)NC1CCC(CC2CCC(NC(=O)OC(C)CN3CC3C)CC2)CC1 (stereo not drawn) [Comp. Ex. 9, reference compound]",
    "reported": 1.6
  },
  {
    "compound": "CCCCCCCCCC(=O)OCC(CN1CC1C)OC(=O)NC(C)(C)c1cccc(C(C)(C)NC(=O)OC(COC(=O)CCCCCCCCC)CN2CC2C)c1 (stereo not drawn) [Ex. 22]",
    "reported": 1.1
  },
  {
    "compound": "CCCCC(CC)COCC(CN1CC1C)OC(=O)NCCCCCCn1c(=O)n(CCCCCCNC(=O)OC(COCC(CC)CCCC)CN2CC2C)c(=O)n(CCCCCCNC(=O)OC(COCC(CC)CCCC)CN2CC2C)c1=O (stereo not drawn) [Ex. 20]",
    "reported": 1.0
  },
  {
    "compound": "CC(CN1CC1C)OC(=O)NCCCCCCNC(=O)OC(C)CN1CC1C (stereo not drawn) [Comp. Ex. 6, reference compound]",
    "reported": 2.2
  },
  {
    "compound": "CCCCCCCCCC(=O)OCC(CN1CC1C)OC(=O)NCCCCCCn1c(=O)n(CCCCCCNC(=O)OC(COC(=O)CCCCCCCCC)CN2CC2C)c(=O)n(CCCCCCNC(=O)OC(COC(=O)CCCCCCCCC)CN2CC2C)c1=O (stereo not drawn) [Ex. 24]",
    "reported": 1.1
  },
  {
    "compound": "CCCCOCC(CN1CC1C)OC(=O)Nc1ccc(C)c(NC(=O)OC(COCCCC)CN2CC2C)c1 (stereo not drawn) [Comp. Ex. 11, reference compound]",
    "reported": 1.2
  },
  {
    "compound": "C=CCOCC(CN1CC1C)OC(=O)NCCCCCCn1c(=O)n(CCCCCCNC(=O)OC(COCC=C)CN2CC2C)c(=O)n(CCCCCCNC(=O)OC(COCC=C)CN2CC2C)c1=O (stereo not drawn) [Ex. 9]",
    "reported": 1.1
  },
  {
    "compound": "Cc1ccccc1OCC(CN1CC1C)OC(=O)NCCCCCCn1c(=O)n(CCCCCCNC(=O)OC(COc2ccccc2C)CN2CC2C)c(=O)n(CCCCCCNC(=O)OC(COc2ccccc2C)CN2CC2C)c1=O (stereo not drawn) [Ex. 21]",
    "reported": 1.2
  },
  {
    "compound": "CCCCOCC(CN1CC1C)OC(=O)NCCCCCCNC(=O)OC(COCCCC)CN1CC1C (stereo not drawn) [Comp. Ex. 10, reference compound]",
    "reported": 1.5
  },
  {
    "compound": "CCCCOCC(CN1CC1C)OC(=O)NC1CCC(CC2CCC(NC(=O)OC(COCCCC)CN3CC3C)CC2)CC1 (stereo not drawn) [Ex. 12]",
    "reported": 1.0
  }
]

---

system: Bscl2-GFP; assay: ToxTracker genotoxicity assay, Bscl2-GFP reporter induction; conditions: GFP induction vs vehicle at 10% cytotoxicity; 3 h exposure with S9, 24 h recovery
Genotoxicity test, With S9 rat liver extract, Bscl 2, 10 overview
experimental readout: Genotoxicity test, With S9 rat liver extract, Bscl 2, 10 (fold)

[
  {
    "molecule": "CCCCCCCCCC(=O)OCC(CN1CC1C)OC(=O)NC1CCC(CC2CCC(NC(=O)OC(COC(=O)CCCCCCCCC)CN3CC3C)CC2)CC1 (centres unmarked) [Ex. 23]",
    "assay system": "Bscl2-GFP",
    "reported": 1.1
  },
  {
    "molecule": "CCCCCCCCCC(=O)OCC(CN1CC1C)OC(=O)NCCCCCCn1c(=O)n(CCCCCCNC(=O)OC(COC(=O)CCCCCCCCC)CN2CC2C)c(=O)n(CCCCCCNC(=O)OC(COC(=O)CCCCCCCCC)CN2CC2C)c1=O (centres unmarked) [Ex. 24]",
    "assay system": "Bscl2-GFP",
    "reported": 1.0
  },
  {
    "molecule": "CCCCOCC(CN1CC1C)OC(=O)NCCCCCCn1c(=O)n(CCCCCCNC(=O)OC(COCCCC)CN2CC2C)c(=O)n(CCCCCCNC(=O)OC(COCCCC)CN2CC2C)c1=O (centres unmarked) [Ex. 14]",
    "assay system": "Bscl2-GFP",
    "reported": 1.0
  },
  {
    "molecule": "CC1CN1C1CCCCC1OC(=O)NCCCCCCn1c(=O)n(CCCCCCNC(=O)OC2CCCCC2N2CC2C)c(=O)n(CCCCCCNC(=O)OC2CCCCC2N2CC2C)c1=O (centres unmarked) [Ex. 19]",
    "assay system": "Bscl2-GFP",
    "reported": 1.1
  },
  {
    "molecule": "CC(CN1CC1C)OC(=O)NCCCCCCNC(=O)OC(C)CN1CC1C (centres unmarked) [Comp. Ex. 6, reference compound]",
    "assay system": "Bscl2-GFP",
    "reported": 1.4
  },
  {
    "molecule": "CCCCOCC(CN1CC1C)OC(=O)NC(C)(C)c1cccc(C(C)(C)NC(=O)OC(COCCCC)CN2CC2C)c1 (centres unmarked) [Ex. 11]",
    "assay system": "Bscl2-GFP",
    "reported": 1.2
  },
  {
    "molecule": "CCCCCCCCCC(=O)OCC(CN1CC1C)OC(=O)NC(C)(C)c1cccc(C(C)(C)NC(=O)OC(COC(=O)CCCCCCCCC)CN2CC2C)c1 (centres unmarked) [Ex. 22]",
    "assay system": "Bscl2-GFP",
    "reported": 1.2
  },
  {
    "molecule": "CCCCOCC(CN1CC1C)OC(=O)NCCCCCCNC(=O)OC(COCCCC)CN1CC1C (centres unmarked) [Comp. Ex. 10, reference compound]",
    "assay system": "Bscl2-GFP",
    "reported": 1.3
  },
  {
    "molecule": "COCCOCCOCCOCCOCCOCCOCCOCCOCCOCCOCCOCCOCCOCC(CN1CC1C)OC(=O)NCCCCCCn1c(=O)n(CCCCCCNC(=O)OC(COCCOCCOCCOCCOCCOCCOCCOCCOCCOCCOCCOCCOCCOC)CN2CC2C)c(=O)n(CCCCCCNC(=O)OC(COCCOCCOCCOCCOCCOCCOCCOCCOCCOCCOCCOCCOCCOC)CN2CC2C)c1=O (centres unmarked) [Ex. 29]",
    "assay system": "Bscl2-GFP",
    "reported": 1.1
  },
  {
    "molecule": "CCCCC(CC)COCC(CN1CC1C)OC(=O)NCCCCCCn1c(=O)n(CCCCCCNC(=O)OC(COCC(CC)CCCC)CN2CC2C)c(=O)n(CCCCCCNC(=O)OC(COCC(CC)CCCC)CN2CC2C)c1=O (centres unmarked) [Ex. 20]",
    "assay system": "Bscl2-GFP",
    "reported": 0.9
  },
  {
    "molecule": "CCCCOCC(CN1CC1C)OC(=O)NCCCCCC/N=c1\\oc(=O)n(CCCCCCNC(=O)OC(COCCCC)CN2CC2C)c(=O)n1CCCCCCNC(=O)OC(COCCCC)CN1CC1C (centres unmarked) [Ex. 15]",
    "assay system": "Bscl2-GFP",
    "reported": 1.0
  }
]
